Protocol Summary: chemical genetic growth profiling, strain panel (AID 1159580);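 further: tested at 20 µM; growth read once vehicle control cultures reached saturation at 30 °C; 1 = growth at the plate median or of vehicle wells; lower values mean less growth of the strain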
Condition Details: S. cerevisiae deletion strains, growth OD, locus YPL240C, strain hsp82, stronger effect = lower value
Screen size: about 5,500 compounds; about 2,000 (36%) were called active. Not shown: some 18% with an inconclusive outcome. The list shows a part of the results.
Would you mind telling me the reported normalized growth of each entry?
In your answer, state the number alone without any accompanying words.

GET /values?readout=normalized growth&item= N=c1nc(N2CCCCC2)cc(N)n1O
0.981

CO[C@H]1C[C@H](O[C@H]2[C@H](C)[C@@H](OC3O[C@H](C)C[C@H](N(C)C)[C@H]3O)[C@@H](C)C[C@]3(CO3)C(=O)[C@H](C)[C@@H](O)[C@@H](C)[C@@H](C)OC(=O)[C@@H]2C)O[C@@H](C)[C@@H]1O (some centres not stated) , same question.
1

Record: NC(N)=NOCC[C@H](N)C(=O)O
1

Quick one: CN1CCCC(n2nc(Cc3ccc(Cl)cc3)c3ccccc3c2=O)CC1 (configuration not stated)
1

Do the same for O=[N+]([O-])O[C@H]1CO[C@H]2[C@@H]1OC[C@H]2O[N+](=O)[O-] please
1

Another molecule to look at: CCC1(C)CC(=O)NC1=O (configuration not stated)
0.973

Please do the same for COC1C(O)C(O)C(O)[C@@H](O)C1O (some centres not stated) as well.
0.986

Field entry: CCC1(c2ccc(N)cc2)CCC(=O)NC1=O (configuration not stated)
0.983

Ok, now CC1(C)S[C@@H]2[C@H](NC(=O)[C@H](NC(=O)N3CCNC3=O)c3ccccc3)C(=O)N2C1C(=O)O (some centres not stated)
0.985

And what about the molecule CC(C)(N=NC(C)(C)C(=N)N)C(=N)N ?
1.01

Next molecule: OCCN(CCO)c1nc(N2CCCCC2)c2nc(N(CCO)CCO)nc(N3CCCCC3)c2n1
0.99

How about O=C(O)c1ccccc1OP(=O)(O)O ?
1

Entry Cc1cccc(Nc2cc(Cl)nc(SCC(=O)O)n2)c1C please
0.978

Another molecule to check: CC(C)[N+](C)(CCOC(=O)C1c2ccccc2Oc2ccccc21)C(C)C
1.01

Check COc1ccc(-c2coc3c(OC)c(OC)cc(O)c3c2=O)cc1 too.
0.994

Now consider CC(=O)OC1CC23CC24CCC(OC2OCC(O)C(O)C2O)C(C)(C)C4CCC3C2(C)CC3OC4(CC(C)C3C12C)OC(O)C1(C)OC41 (configuration not stated) and answer again.
1.02

Input COc1ccc2c(c1)OC[C@@H](Cc1ccc(OC)c(OC)c1)[C@H]2O
1.01

Let us now turn to CCC1(c2ccccc2)C(=O)NCNC1=O
0.992

Ok, now OCC(O)Cc1ccc2c(c1)OCO2 (configuration not stated)
1

Also need C/C=C(/C(=C/C)c1ccc(O)cc1)c1ccc(O)cc1 , thanks.
0.981

Same question for CC(=O)O[C@@](C)(CCC=C(C)C)C1CC=C(C)CC1 (some centres not stated) please.
0.974

Same again, this time with CC(C(=O)O)c1ccc2c(c1)[nH]c1ccc(Cl)cc12 (configuration not stated)
1

Source of measurements: PubChem BioAssay AID1159580
